# TEST_SYSTEM: JUNB;CEBPA (Homo sapiens;Homo sapiens, UniProt P17275;P49715 259-332;273-345, |)
# Sequence (P17275 other isoform, or with tags, fused parts or gaps |, chain 1 of 2): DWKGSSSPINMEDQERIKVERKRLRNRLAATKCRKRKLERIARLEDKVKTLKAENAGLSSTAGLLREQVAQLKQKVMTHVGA
# Sequence (P49715 other isoform, or with tags, fused parts or gaps |, chain 2 of 2): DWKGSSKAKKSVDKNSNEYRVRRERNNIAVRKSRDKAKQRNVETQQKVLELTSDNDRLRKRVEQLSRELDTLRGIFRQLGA
# MEASUREMENT_NOTES: SELEX-seq (CSI, HT-SELEX, round 3); SELEX-seq: 1x PBS (10 mM phosphate, 137 mM NaCl, 2.7 mM KCl) pH 7.6, 2.5 mM DTT, 50 ng/ul poly dI-dC, 0.1% BSA, 50 nM biotinylated bZIP (1:3 with partner for heterodimers), 100 nM library, room temperature, 1 h, 3 rounds; high values mean tight binding
# STUDY_CONDITIONS: protein: recombinant;recombinant; copies: 1;1; dsDNA, one strand shown
QUANTITY_MEASURED: binding signal

| SEQUENCE | RESULT |
| --- | --- |
| ATGATGCAAT | 0.927 relative CSI intensity (max = 1) |
| ATGACGGAAT | 0.00413 relative CSI intensity (max = 1) |
| ATGACGTCAT | 0.0515 relative CSI intensity (max = 1) |
| ATGACGTAAT | 0.144 relative CSI intensity (max = 1) |
| CCTGACGTCA | 0.00467 relative CSI intensity (max = 1) |

----------
# TEST_SYSTEM: MAFB;ATF5 (Homo sapiens;Homo sapiens, UniProt Q9Y5Q3;Q9Y2D1 212-305;199-275, |)
# Sequence (Q9Y5Q3 other isoform, or with tags, fused parts or gaps |, chain 1 of 2): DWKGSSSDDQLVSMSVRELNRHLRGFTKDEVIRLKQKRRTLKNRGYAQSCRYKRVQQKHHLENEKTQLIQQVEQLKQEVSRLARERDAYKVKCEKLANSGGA
# Sequence (Q9Y2D1 other isoform, or with tags, fused parts or gaps |, chain 2 of 2): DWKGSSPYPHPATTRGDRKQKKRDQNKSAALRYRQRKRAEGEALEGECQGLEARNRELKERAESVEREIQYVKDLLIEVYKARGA
# MEASUREMENT_NOTES: SELEX-seq (CSI, HT-SELEX, round 3); SELEX-seq: 1x PBS (10 mM phosphate, 137 mM NaCl, 2.7 mM KCl) pH 7.6, 2.5 mM DTT, 50 ng/ul poly dI-dC, 0.1% BSA, 50 nM biotinylated bZIP (1:3 with partner for heterodimers), 100 nM library, room temperature, 1 h, 3 rounds; high values mean tight binding
# STUDY_CONDITIONS: protein: recombinant;recombinant; copies: 1;1; dsDNA, one strand shown

| SEQUENCE | binding signal |
| --- | --- |
| CCTGACGTCA | 0.0743 relative CSI intensity (max = 1) |
| ATGATGCAAT | 0.00407 relative CSI intensity (max = 1) |
| ATGACGCAAT | 0.00342 relative CSI intensity (max = 1) |
